Each entry below lists one item and its recorded koff value.
# System name: T1, hIL27Ra-his (Origene, Catalog #TP307012) (human, UniProt Q6UWB1 33-516, limits assumed)
# T1 construct: Bought his-tagged cytokine receptor used as SPR analyte; also called human IL27 receptor subunit alpha; not shown: his tag
# T1 sequence: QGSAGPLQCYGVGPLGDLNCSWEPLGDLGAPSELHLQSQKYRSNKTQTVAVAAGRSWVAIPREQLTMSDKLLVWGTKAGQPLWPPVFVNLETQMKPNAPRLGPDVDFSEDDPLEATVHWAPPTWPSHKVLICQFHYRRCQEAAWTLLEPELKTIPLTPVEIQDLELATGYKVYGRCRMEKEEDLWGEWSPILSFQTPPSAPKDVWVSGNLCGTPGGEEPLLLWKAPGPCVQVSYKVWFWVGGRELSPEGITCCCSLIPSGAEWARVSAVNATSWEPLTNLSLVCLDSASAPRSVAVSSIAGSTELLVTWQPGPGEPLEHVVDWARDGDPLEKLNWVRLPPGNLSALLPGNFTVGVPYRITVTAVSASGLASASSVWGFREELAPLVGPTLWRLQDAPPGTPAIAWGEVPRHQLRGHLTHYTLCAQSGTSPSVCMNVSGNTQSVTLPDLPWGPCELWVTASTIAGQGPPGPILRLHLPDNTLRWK
# Protocol summary: SPR Biacore T200, hIL27Ra arm
Please reply with the bare figure in s⁻¹ and do not write the unit itself.

Consider the reported koff for these binders:
**Q:** Hello, please tell me recorded koff for this one: hIL27Ra_VHH19 (VHH) VHH: QVQLQESGGGSVQAGGSLRLSCRASGSTYSNYCLGWFRQITGKEREGVAVINWVGGMLYFADSVKGRFTVSQDQAKNTVYLQMNSLKPEDTAMYYCAAESVSSFSCGGWLTRPDRVPYWGQGTQVTVSS
**A:** 0.00076

**Q:** Hello, please tell me recorded koff for this one: hIL27Ra_VHH15 (VHH) VHH: QVQLQESGGGSVQAGGSLRLSCVASGYVSCDYFLPSWYRQAPGKEREFVSIIDGTGSTSYAASVKGRFTASQDKGKNIAYLQMNTLKPEDTAMYYCKASCVRGRAISEYWGQGTQVTVSS
**A:** 0.001

**Q:** Hello, please tell me recorded koff for this one: hIL27Ra_VHH1 (VHH) VHH: QVQLQESGGGLVQPGGSLRLSCAASGFTFSSYPMSWVRQAPGKGLEWISTISAGGDTTLYADSVKGRFTSSRDNAKNTLYLQLNSLKTEDAAIYYCAKRIDCNSGYCYRRNYWGQGTQVTVSS
**A:** 0.00057

**Q:** Hello, please tell me recorded koff for this one: hIL27Ra_VHH21 (VHH) VHH: QVQLQESGGGLVQPGGSLRLSCAASGFTFSLSSMSWVRQAPGKGLEWVSAISSGGASTYYTDSVKGRFTISRDNAKNMLYLQLNSLKTEDTAMYYCAKGGSGYGDASRMTSPGSQGTQVTVSS
**A:** 0.00077

Could you now consider this next binder?
**Q:** Hello, please tell me recorded koff for this one: hIL27Ra_VHH9 (VHH) VHH: QVQLQESGGGSVQSGGSLRLSCAASGFTYSTSNSWMAWFRQAPGKEREGVAAIYTVGGSIFYADSVRGRFTISQDATKNMFYLQMNTLKPEDTAMYYCAAASGRLRGKWFWPYEYNYWGQGTQVTVSS
**A:** 0.00041
